Origin of values: ChEMBL document CHEMBL2311394

Quick record of Ki values for Glutamate receptor ionotropic, kainate 3 (Rattus norvegicus).
measured_attribute: Ki (nM)

>  <smiles_input>
N[C@@H](C[C@@H](CCC(=O)Nc1ccccc1)C(=O)O)C(=O)O

>  <measured_attribute>
Ki

>  <display_unit>
nM

>  <number>
4660

$$$$
>  <smiles_input>
N[C@@H](C[C@@H](CCC(=O)NOCc1ccccc1)C(=O)O)C(=O)O

>  <measured_attribute>
Ki

>  <display_unit>
nM

>  <number>
2810

$$$$
>  <smiles_input>
CN(C)C(=O)CC[C@H](C[C@H](N)C(=O)O)C(=O)O

>  <measured_attribute>
Ki

>  <display_unit>
nM

>  <number>
5390

$$$$
>  <smiles_input>
O=C(O)[C@@H]1CCCN[C@H](C(=O)O)C1

>  <measured_attribute>
Ki

>  <display_unit>
nM

>  <number>
2500

$$$$
>  <smiles_input>
N#CCC[C@H](C[C@H](N)C(=O)O)C(=O)O

>  <measured_attribute>
Ki

>  <display_unit>
nM

>  <number>
34.5

$$$$
>  <smiles_input>
N[C@@H](C[C@@H](CCNC(=O)OCc1ccccc1)C(=O)O)C(=O)O

>  <measured_attribute>
Ki

>  <display_unit>
nM

>  <number>
217

$$$$
>  <smiles_input>
CCN(CC)C(=O)CC[C@H](C[C@H](N)C(=O)O)C(=O)O

>  <measured_attribute>
Ki

>  <display_unit>
nM

>  <number>
3290

$$$$
>  <smiles_input>
NCC[C@H](C[C@H](N)C(=O)O)C(=O)O

>  <measured_attribute>
Ki

>  <display_unit>
nM

>  <number>
340

$$$$
